Assay: Immobilised artificial membrane (IAM) chromatography
Type: physicochemical
Settings: extrapolated to 100% water; mean of four experiments
Readout Kind: LogK^IAM

CN1CCC[C@@H]1Cc1c[nH]c2ccc(CCS(=O)(=O)c3ccccc3)cc12 ... 1.46
CC(C)(C)NCC(O)c1ccc(O)c(CO)c1 (centres unmarked) ... 1.47
CC[C@@]1([C@@H]2O[C@@H]([C@H]3O[C@@](O)(CO)[C@H](C)C[C@@H]3C)C[C@@H]2C)CC[C@H]([C@]2(C)CC[C@]3(C[C@H](O)[C@@H](C)[C@@H]([C@@H](C)[C@@H](OC)[C@H](C)C(=O)O)O3)O2)O1 ... 1.32
CC(C)(C)NC(=O)[C@@H]1C[C@@H]2CCCC[C@@H]2CN1C[C@@H](O)[C@H](Cc1ccccc1)NC(=O)[C@H](CC(N)=O)NC(=O)c1ccc2ccccc2n1 ... 1.24
O=c1[nH]c2ccccc2n1CCCN1CCC(n2c(=O)[nH]c3cc(Cl)ccc32)CC1 ... 1.33

---

Tested on: P-gp (Mdr1a/1b) in mouse intestinal segments
Assay: Ussing chamber intestinal permeability, ileal segments Mdr1a/1b (+/+) vs (−/−)
Conditions: P-gp knockout intestinal segments, mucosal to serosal, 50 μM, 180 min
Reported Mdr1a/1b (−/−) Permeability coefficient values for the following compounds.

Recorded Mdr1a/1b (−/−) Permeability coefficient, per entry:
CN1CCC[C@@H]1Cc1c[nH]c2ccc(CCS(=O)(=O)c3ccccc3)cc12 ... 11.04 ± 2.17 cm/s (x10^−6)
COC(=O)c1ccccc1-c1c2ccc(=N)cc-2oc2cc(N)ccc12.Cl ... 22.55 ± 2.24 cm/s (x10^−6)
CC(C)(C)NC(=O)[C@@H]1C[C@@H]2CCCC[C@@H]2CN1C[C@@H](O)[C@H](Cc1ccccc1)NC(=O)[C@H](CC(N)=O)NC(=O)c1ccc2ccccc2n1 ... 15.73 ± 3.52 cm/s (x10^−6)
OCc1cc(C(O)CNCCCCCCOCCCCc2ccccc2)ccc1O (stereo not drawn) ... 18.33 ± 2.38 cm/s (x10^−6)
O=C1c2c(O)ccc(O)c2C(=O)c2c(NCCNCCO)ccc(NCCNCCO)c21 ... 13.70 ± 2.69 cm/s (x10^−6)

With those in mind, consider the next compound.
Inquiry: Need Mdr1a/1b (−/−) Permeability coefficient of CCN(CC)CCCC(C)Nc1ccnc2cc(Cl)ccc12 (stereo not drawn) , thanks.
Reply text: 23.39 ± 4.18 cm/s (x10^−6)

---

System: P-glycoprotein (Mdr1a/Mdr1b) in isolated perfused mouse lung
Assay: Isolated perfused mouse lung (IPML) airway-to-perfusate absorption, Mdr1a/1b (+/+) vs (−/−)
Settings: male, mouse, 50 μM
In this section we review reported Mdr1a/1b (+/+) ‘F’ estimate by model fit [95% CI) values for a set of molecules.

CC(C)(C)NC(=O)[C@@H]1C[C@@H]2CCCC[C@@H]2CN1C[C@@H](O)[C@H](Cc1ccccc1)NC(=O)[C@H](CC(N)=O)NC(=O)c1ccc2ccccc2n1 ... 25.5 [11.4 to 39.6]
CN1CCC[C@@H]1Cc1c[nH]c2ccc(CCS(=O)(=O)c3ccccc3)cc12 ... 18.5 [16.5 to 20.5]
COc1ccc(C[C@H](N)C(=O)N[C@H]2[C@@H](O)[C@H](n3cnc4c(N(C)C)ncnc43)O[C@@H]2CO)cc1 ... 48.2 [43.7 to 52.8]
CCc1cc2c(cc1CC)CC(NC[C@H](O)c1ccc(O)c3[nH]c(=O)ccc13)C2 ... 29.3 [25.5 to 33.1]

Consider the additional molecule presented here.
Inquiry: Report Mdr1a/1b (+/+) ‘F’ estimate by model fit [95% CI) for `C[C@H]1O[C@@H](O[C@H]2[C@@H](O)C[C@H](O[C@H]3[C@@H](O)C[C@H](O[C@H]4CC[C@@]5(C)[C@H](CC[C@@H]6[C@@H]5C[C@@H](O)[C@]5(C)[C@@H](C7=CC(=O)OC7)CC[C@]65O)C4)O[C@@H]3C)O[C@@H]2C)C[C@H](O)[C@@H]1O` please.
Reply text: 44.0 [37.2 to 50.8]
